# EXPERIMENTAL_SYSTEM: native VAR2CSA on FCR3-CSA infected erythrocytes (Plasmodium falciparum FCR3, UniProt Q6UDW7, strain)
# TEST_DETAILS: flow cytometry on cells

{"columns": ["BINDER", "binding result"],
 "data": [
  ["VHH859 (VHH) VHH: QVQLQESGGGLVQAGGSLRLSCAASGRTFSSYAMGWFRQAPGKEREFVAAISWNGSSTYYADSVKGRFTISRDNAKNTVYLQMNSLKPEDTAVYYCAANDLLVPELLMSRVEVYDYWGQGTQVTVSS", "binds"],
  ["VHH883 (VHH) VHH: QVQLQESGGGLVQAGGSLRLSCAASGRTFSSYAMGWFRQAPGKEREFVAAISWSGDTTYYADSVKGRFTISRDNAKNTVSLQMNSLKPEDTAVYYCAANDLMVPALLMPRLESYDYWGQGTQVTVSS", "binds"],
  ["VHH867 (VHH) VHH: QVQLQESGGGLVQAGGSLRLSCAASGFTLDDYGIGWFRQAPGKEREGVSFISSSDGTTDYADSVKGRFTISSDNAKNTVYLQMNSLKPEDTAVYYCAAVEQRVPFLSVLHEAIYDYWGQGTQVTVSS", "binds"]
]}
